# Test system: VchCAST RNA-guided transposition machinery (E. coli BL21(DE3) host, lacZ target)
# assay info: relative integration efficiency (T-LR orientation) vs wild-type transposon end (log2 (normalized fold change)); transposon end mutated: right end (5 bp flank + 75 bp right end); higher = more efficient transposition
parameter: relative integration efficiency (log2)
Write the value as a bare number.

>>> measured("ACATTTCTTGATACAACCATAAAATGATAATTACACCCATAAATTGATCATTATCACACCCAATTTAACTATAACGCTCTGATCATAGTCAGACCAACATTGCTACGACCCGTATTCGCACCGACAC")
1.34

Ask: Record ACATTTGTTGATACAACCATATATTGATATCTCCAACCATATATTGATATCTCTCACAACCATAAGTTGATATTTTCTCTGATCATAGTCAGACCAACATTGCTACGACCCGTATTCGCACCGACAC : what is its relative integration efficiency (log2) with VchCAST RNA-guided transposition machinery (E. coli BL21(DE3) host, lacZ target)?
Result: -0.0341

Ask: Record ACATTTGTTGATACAACCATAAAATGATAATTCCACCCCTACATTGATAATTATCACACCCAATTTAACTATAACGCTCTGATCATAGTCAGACCAACATTGCTACGACCCGTATTCGCACCGACAC : what is its relative integration efficiency (log2) with VchCAST RNA-guided transposition machinery (E. coli BL21(DE3) host, lacZ target)?
Result: 0.35
